test system: Alopecurus myosuroides, blackgrass (ALOMY); assay: Biological Example 3 glasshouse screen, post-emergence herbicidal activity; type: in vivo; conditions: 360 h, application rate 30 g/ha, 15 DAA, no safener, read-out: ALOMY percentage phytotoxicity
// pest or weed control at 30 g/ha lookup, one value per entry
readout: pest or weed control at 30 g/ha (%)

| compound | test-value |
| --- | --- |
| Cc1cc(-c2ccc(F)cc2)cc(C)c1C1C(=O)CC(Cc2ccccn2)C1=O (stereo not drawn) [Compound T71, from WO 2010/069834, reference compound] | 100 |
| Cc1cc(-c2ccc(F)c(Cl)c2)cc(C)c1C1C(=O)CC(Cc2ccccn2)C1=O (stereo not drawn) [reference compound] | 100 |
| CC#Cc1cc(C)c(C2C(=O)CC(Cc3ccn(C)n3)C2=O)c(C)c1 (stereo not drawn) | 100 |
| CC#Cc1cc(C)c(C2=C(O)CC(Cc3ccc(C)cn3)C2=O)c(C)c1 (stereo not drawn) | 80 |
| CC#Cc1cc(C)c(C2=C(O)CC(Cc3cccc(F)n3)C2=O)c(C)c1 (stereo not drawn) | 70 |
| CC#Cc1cc(C)c(C2=C(O)CC(Cc3ccc(C#N)cn3)C2=O)c(C)c1 (stereo not drawn) | 70 |

###

test system: Alopecurus myosuroides (ALOMY); assay: Biological Example 1 glasshouse screen, pre-emergence herbicidal activity; format: in vivo; conditions: 312 h, application rate 250 g/ha, evaluated after 13 days, read-out: ALOMY percentage phytotoxicity
readout: pest or weed control at 250 g/ha (%)

| compound | test-value |
| --- | --- |
| CC#Cc1cc(C)c(C2=C(O)CCC2=O)c(C)c1 | 100 |
| CC#Cc1cc(C)c(C2=C(O)CC(Cc3cccc(C)n3)C2=O)c(C)c1 (centres unmarked) | 100 |
| CC#Cc1cc(C)c(C2C(=O)CC(Cc3ccccc3C#N)C2=O)c(C)c1 (centres unmarked) | 50 |
| Cc1cc(C#CCl)cc(C)c1C1C(=O)C2C(C1=O)[C@H]1CC[C@@H]2O1 (some centres unmarked) | 80 |
| CC#Cc1cc(C)c(C2=C(O)CC(Cc3ccc(C)cn3)C2=O)c(C)c1 (centres unmarked) | 100 |
| CC#Cc1cc(C)c(C2C(=O)CC(Cc3ccc(C#N)cc3)C2=O)c(C)c1 (centres unmarked) | 70 |
| CC#Cc1cc(C)c(C2C(=O)CC(Cc3ccc(C#N)cn3)C2=O)c(CC)c1 (centres unmarked) | 90 |
| CC#Cc1cc(C)c(C2C(=O)CC(Cc3ccccn3)C2=O)c(CC)c1 (centres unmarked) | 100 |

###

tested on: Alopecurus myosuroides (ALOMY); test: Biological Example 4B (not-previously-formulated compounds) post-emergence herbicidal activity on grassy weeds; type: in vivo; conditions: 60 g/ha, cloquintocet-mexyl 0 g/ha, 14 DAA, technical compound in IF50 + Adigor, mean of two
readout: ALOMY % phytotoxicity (%)

| compound | target-entity | readout | test-value |
| --- | --- | --- | --- |
| CC#Cc1cc(C)c(C2=C(O)CC(Cc3ccc(F)cn3)C2=O)c(C)c1 (centres unmarked) [Compound A-11] | Alopecurus myosuroides (ALOMY) | ALOMY % phytotoxicity | 85 |
| CC#Cc1cc(C)c(C2C(=O)CC(Cc3ccn(C)n3)C2=O)c(C)c1 (centres unmarked) [Compound A-19] | Alopecurus myosuroides (ALOMY) | ALOMY % phytotoxicity | 100 |
| CC#Cc1cc(C)c(C2C(=O)CC(Cc3ccccn3)C2=O)c(CC)c1 (centres unmarked) [Compound A-26] | Alopecurus myosuroides (ALOMY) | ALOMY % phytotoxicity | 100 |
| CC#Cc1cc(C)c(C2=C(O)CC(Cc3ccc(C#N)cn3)C2=O)c(C)c1 (centres unmarked) [Compound A-14] | Alopecurus myosuroides (ALOMY) | ALOMY % phytotoxicity | 97 |
| CC#Cc1cc(C)c(C2=C(O)CC(Cc3ccc(C)cn3)C2=O)c(C)c1 (centres unmarked) [Compound A-8] | Alopecurus myosuroides (ALOMY) | ALOMY % phytotoxicity | 94 |
